B1: C1orf55 (parent)
chain: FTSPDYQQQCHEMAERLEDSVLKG

Variants of: B1
Assay Notes: protein stability index of a GFP-peptide fusion (GPS, HEK-293T) (PSI 1-6); higher = more stable;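 further: lentivirally expressed fusions sorted by FACS into six bins by GFP to DsRed ratio, PSI derived from sequencing read proportions per bin multiplied by bin number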
Setup Conditions: c terminus: a fixed tail appended
Reported protein stability index values are given for each entry in this list.
Simply state the number, no unit and no words.

Request: // query protein stability index value for entry S3W
Result: 2.24

Request: Param item: Q7D
Result: 4.18

***
Request: // query protein stability index value for entry M13I
Result: 1.97

Request: Param item: L17Q
Result: 2.34

Request: Param item: V21T
Result: 2.65

Request: Param item: K23H
Result: 1.89

Request: Param item: R16V
Result: 2.45

Request: Param item: Y6M
Result: 3.94

Request: Param item: E15K
Result: 1.59

Request: Param item: K23F
Result: 1.5

Request: Param item: G24T
Result: 2.26

Request: Param item: P4H
Result: 2.63
